Reported values of GI50 for individual entries
- Test system: ACHN
- Run Description: SRB anticancer assay, renal
- Assay type: cell-based, human
- Test Settings: Homo sapiens, 48 h
Give the quantity in µM, number only.

Consider the worked cases shown below.
{"columns": ["Structure Smiles", "GI50 (µM)"],
 "data": [
  ["COc1ccc(-c2cncn2-c2ccc(-c3nc4cc(OC)c(OC)c(OC)c4s3)cc2)cc1N", 5.59],
  ["COc1cc(-c2cncn2-c2ccc(-c3nc4ccc(F)cc4s3)cc2)ccc1F", 29.1],
  ["COc1cc2nc(-c3ccc(-n4cncc4-c4ccc(N)cc4)cc3)sc2c(OC)c1OC", 8.56],
  ["COc1cc(OC)cc(-c2cncn2-c2ccc(-c3nc4cc(OC)c(OC)c(OC)c4s3)cc2)c1", 11.5]
]}

Prompt: Which GI50 is listed for COc1cc(OC)c2sc(-c3ccc(-n4cncc4-c4cc(OC)c(OC)c(OC)c4)cc3)nc2c1 ?
Response: 6.67
